Test system: CV-1 cells
EXPERIMENT: Cytotoxicity in antiviral assay (Table 4)
Type: cell-based, African green monkey
Set-up: key: 0 = no cytotoxicity, 16 = complete cell destruction
ASSAY_CONTEXT: Table 4, 20 μg/disk
CYT. values by entry

Take a look at these entries with their results.
1) O=C(c1nc(-c2c[nH]c3ccc(O)cc23)c[nH]1)c1c[nH]c2ccccc12 [Compound 8, Neoisotopsentin]: 0
2) O=C(c1nc(-c2c[nH]c3ccccc23)c[nH]1)c1c[nH]c2ccc(O)cc12: 0
3) O=C(c1nc(-c2c[nH]c3cc(O)ccc23)c[nH]1)c1c[nH]c2ccccc12 [Compound 4, Isotopsentin]: 0
4) O=C(c1nc(-c2c[nH]c3ccccc23)c[nH]1)c1c[nH]c2cc(O)ccc12: 0
5) O=C(c1nc(-c2c[nH]c3cc(O)ccc23)c[nH]1)c1c[nH]c2cc(O)ccc12 [Compound 5, Hydroxytopsentin]: 0

Lab note: next molecule to report on.
Record O=C(c1nc(-c2c[nH]c3ccc(O)cc23)c[nH]1)c1c[nH]c2ccc(O)cc12 [Compound 9, Neohydroxytopsentin] . Reported CYT.: 0
